target.under.test: pre-pro-insulin glargine
endpoint.label: desThr (area %)
Record the value in area %, omitting the unit from your answer.

trypsin variant SEQ ID NO: 74 (protein) IVGGYTCAANSIPYQVSLNSGSHRCGGSLINSQWVVSAAHCYKSRIQVRLGEHNIDVLEGNEQFINAAKIITHPNFNPNTLDNDIMLIKLSSPATLNSRVATVSLPRSCAAAGTECLISGWGNTKSSGSSYPSLLQCLKAPVLSDSSCKSSYPGQITGNMICVGFLEGGKDACQGDSGGPVVCNGQLQGIVSSGYGCAQKNKPGVYTKVCNYVNWIQQTIAAN : 2.1

Looking up trypsin variant SEQ ID NO: 101 (protein) IVGGYTCAANSIPYQVSLNSGSHRCGGSLINSQWVVSAAHCYKSRIQVRLGEHNIHVLEGNEQFINAAKIITHPNFNPNTLDNDIMLIKLSSPATLNSNVATVSLPTSCAAAGTECLISGWGNTSSSGSSMPSLLQCLKAPVLSDSSCKSSYPGQITGNMICVGFLEGGADACQGDSGGPVVCNGQLQGIVSSGYGCAQKNKPGVYTKVCNYVNWIQQTIAAN , I found its desThr recorded as 0.4

# desThr (protein: trypsin variant SEQ ID NO: 108 (protein) IVGGYTCAANSIPYQVSLNSGSHRCGGSLINSQWVVSAAHCYKPRIQVRLGEHNIDVLEGNEQFINAAKIITHPNFNPNTLDNDIMLIKLSSPATLNSAVATVSLPTSCAAAGTECLISGWGNTCSSGSSMPSLLQCLKAPVLSDSSCKSSYPGQITGNMICVGFLEGGADACQGDSGGPVVCNGQLQGIVSSGYGCAQKNKPGVYTKVCNYVNWIQQTIAAN ) is 0.7
